system: HT29 colon; assay: NCI tumour cell line growth inhibition, 48 h

{"molecule": "C[C@@H]1CCC2[C@@H](C)[C@@H](OC3CCC(O)CC3)OC3O[C@@]4(C)CCC1[C@]32OO4 (stereo partly drawn)", "target_under_test": "HT29 colon", "TGI": "> 100 µM"}
{"molecule": "C[C@]12CC[C@H](O)C[C@@H]1CC[C@@H]1[C@@H]2CC[C@]2(C)[C@@H](c3cc(C(F)(F)F)n[nH]3)CC[C@@H]12", "target_under_test": "HT29 colon", "TGI": "18.4 µM"}
{"molecule": "OC(c1ccc(F)cc1)(c1ccc(F)cc1)C1CC1", "target_under_test": "HT29 colon", "TGI": "65.9 µM"}
{"molecule": "CC(C)=CCc1ccc2[nH]c3c(c2c1)C(=O)C(=O)C(C)=C3C(O)C(C)O (stereo not drawn)", "target_under_test": "HT29 colon", "TGI": "35.1 µM"}
{"molecule": "CCOC(=O)[C@@]12C(C)=CC(=O)O[C@]1(C)C[C@H]2C#N", "target_under_test": "HT29 colon", "TGI": "> 100 µM"}
{"molecule": "Clc1ccc(C2c3ccccc3-c3nc4ccccc4n32)cc1 (stereo not drawn)", "target_under_test": "HT29 colon", "TGI": "> 88.9 µM"}
{"molecule": "CC(=O)OCCOCn1cc(C=O)c2ccccc21", "target_under_test": "HT29 colon", "TGI": "> 100 µM"}
{"molecule": "NCCSCC(N)C(=O)O (stereo not drawn)", "target_under_test": "HT29 colon", "TGI": "> 497 µM"}
{"molecule": "O=C(c1c(Cl)cc(Cl)cc1Cl)N(Cc1cccnc1)C(=S)N(Cc1cccnc1)C(=O)c1c(Cl)cc(Cl)cc1Cl", "target_under_test": "HT29 colon", "TGI": "13.2 µM"}
{"molecule": "CC[C@H](CC[C@@H](C)[C@H]1CC[C@H]2[C@@H]3CC=C4C[C@@H](O)CC[C@]4(C)[C@H]3CC[C@]12C)C(C)C", "target_under_test": "HT29 colon", "TGI": "> 100 µM"}
{"molecule": "COC(=O)CCCc1ccc2c(c1)CC1(Cc3ccccc3C1)C2", "target_under_test": "HT29 colon", "TGI": "> 100 µM"}
{"molecule": "CN(C)c1ccc(Cc2cc(C(C)(C)C)cc(C(C)(C)C)c2O)cc1", "target_under_test": "HT29 colon", "TGI": "31.1 µM"}
{"molecule": "C=CCCCC(=O)CCC(=O)OCC1O[C@@H](O[C@@H]2C(O)[C@@H](OC(C)=O)C(C)O[C@H]2O[C@H](CC=C)CCCCC)C(O)[C@@H](OC(=O)/C(C)=C/C)[C@@H]1OC(=O)/C=C/c1ccccc1 (stereo partly drawn)", "target_under_test": "HT29 colon", "TGI": "3.06 µM"}
{"molecule": "CC(C)=NN/C(=N\\S(=O)(=O)c1cc2ccccc2s1)Nc1ccc(Cl)cc1", "target_under_test": "HT29 colon", "TGI": "> 100 µM"}
{"molecule": "CCCCCCC/C(=N\\N=C(N)N)c1ccc(O)cc1", "target_under_test": "HT29 colon", "TGI": "6.25 µM"}
{"molecule": "O=P(Nc1ccccc1)(Oc1ccccc1)N1CCN(c2ccccc2)CC1 (stereo not drawn)", "target_under_test": "HT29 colon", "TGI": "29.3 µM"}
{"molecule": "N#Cc1c(-c2ccc(Cl)cc2)cc(-c2cc(O)ccc2O)nc1N", "target_under_test": "HT29 colon", "TGI": "> 53.3 µM"}
{"molecule": "CCN1C(Cl)=NS(=O)(=O)c2ccccc21", "target_under_test": "HT29 colon", "TGI": "> 100 µM"}
{"molecule": "CC1=Nn2c(nnc2-c2ccccc2Cl)NC(C)(C)C1", "target_under_test": "HT29 colon", "TGI": "> 100 µM"}
{"molecule": "COc1ccc(O)cc1C=O", "target_under_test": "HT29 colon", "TGI": "> 100 µM"}
{"molecule": "COC(=O)N1c2ccc3c(nc(Cc4ccccc4)n3[C@H]3CCC[C@H](C(=O)O)C3)c2CC[C@@H]1C", "target_under_test": "HT29 colon", "TGI": "> 100 µM"}
{"molecule": "COC(=O)c1ccc([C@H]2c3[nH]c4ccccc4c3C[C@H](C(=O)OC)N2C(=O)CCl)cc1", "target_under_test": "HT29 colon", "TGI": "1.11 µM"}
{"molecule": "Cc1ccc(C(=O)CCl)o1", "target_under_test": "HT29 colon", "TGI": "> 10 µM"}
{"molecule": "Cc1ccc(N=Nc2c(O)c(S(=O)(=O)O)cc3cc(S(=O)(=O)O)ccc23)c(C)c1", "target_under_test": "HT29 colon", "TGI": "> 100 µM"}
{"molecule": "CN(C)c1ccc(/C=C(/C(=O)O)c2csc(-c3nc(/C(=C\\c4ccc(N(C)C)cc4)C(=O)O)cs3)n2)cc1", "target_under_test": "HT29 colon", "TGI": "> 100 µM"}
{"molecule": "Cn1cccc(C(=O)c2ccccc2)c1=O", "target_under_test": "HT29 colon", "TGI": "> 100 µM"}
{"molecule": "O=c1c2sc3ccccc3c2nnn1-c1ccc(F)c(Cl)c1", "target_under_test": "HT29 colon", "TGI": "> 100 µM"}
{"molecule": "C=C[C@H]1CN2CCc3c([nH]c4cc(O)ccc34)[C@@H]2C[C@@H]1C[C@H]1c2[nH]c3ccccc3c2CCN1C", "target_under_test": "HT29 colon", "TGI": "6.4 µM"}
{"molecule": "COc1nc(C(=O)O)c(Cl)c(OC)c1Cl", "target_under_test": "HT29 colon", "TGI": "> 100 µM"}
{"molecule": "CC(C)(C)C1CCC2c3c([nH]c4ccccc34)C3C(=O)N(c4ccc(C(=O)O)cc4)C(=O)C3C2C1 (stereo not drawn)", "target_under_test": "HT29 colon", "TGI": "28.7 µM"}
{"molecule": "Oc1cccc2cc(Cl)cnc12", "target_under_test": "HT29 colon", "TGI": "> 69.2 µM"}
{"molecule": "COc1cc(C2CC(C)(N3CCCC3)Oc3cc4c(cc32)OCO4)cc(OC)c1OC (stereo not drawn)", "target_under_test": "HT29 colon", "TGI": "0.492 µM"}
{"molecule": "O=S1[C@H](c2ccccc2)c2c(-c3ccccc3)sc(-c3ccccc3)c2[C@@H]1c1ccccc1 (stereo partly drawn)", "target_under_test": "HT29 colon", "TGI": "> 100 µM"}
